Every entry's value here was drawn from patent US20150140169.

What αs1-I CN, 6 hours, 11° C. was measured for each of the following?
- ASSAY_SYSTEM: T1, alpha-s1 casein from Bos taurus
- T1 chain: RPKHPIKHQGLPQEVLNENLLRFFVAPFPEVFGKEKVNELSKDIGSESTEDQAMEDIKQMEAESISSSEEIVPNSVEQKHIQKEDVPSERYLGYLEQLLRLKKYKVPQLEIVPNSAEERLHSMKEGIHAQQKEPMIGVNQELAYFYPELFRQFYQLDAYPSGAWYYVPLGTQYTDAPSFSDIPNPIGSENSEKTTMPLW
Answers are plain numbers, in Volume.

| PROTEIN | NUMERIC_READOUT |
| --- | --- |
| camel chymosin variant #144 (F223Y) (protein) GKVAREPLTSYLDSQYFGKIYIGTPPQEFTVVFDTGSSDLWVPSIYCKSNVCKNHHRFDPRKSSTFRNLGKPLSIHYGTGSMEGFLGYDTVTVSNIVDPNQTVGLSTEQPGEVFTYSEFDGILGLAYPSLASEYSVPVFDNMMDRHLVARDLFSVYMDRNGQGSMLTLGAIDPSYYTGSLHWVPVTLQQYWQFTVDSVTINGVAVACVGGCQAILDTGTSVLYGPSSDILKIQMAIGATENRYGEFDVNCGNLRSMPTVVFEINGRDYPLSPSAYTSKDQGFCTSGFQGDNNSELWILGDVFIREYYSVFDRANNRVGLAKAI | 3.05e+07 |
| camel chymosin variant #136 (F223C) (protein) GKVAREPLTSYLDSQYFGKIYIGTPPQEFTVVFDTGSSDLWVPSIYCKSNVCKNHHRFDPRKSSTFRNLGKPLSIHYGTGSMEGFLGYDTVTVSNIVDPNQTVGLSTEQPGEVFTYSEFDGILGLAYPSLASEYSVPVFDNMMDRHLVARDLFSVYMDRNGQGSMLTLGAIDPSYYTGSLHWVPVTLQQYWQFTVDSVTINGVAVACVGGCQAILDTGTSVLCGPSSDILKIQMAIGATENRYGEFDVNCGNLRSMPTVVFEINGRDYPLSPSAYTSKDQGFCTSGFQGDNNSELWILGDVFIREYYSVFDRANNRVGLAKAI | 2.06e+07 |
| bovine chymosin B variant #62 (V223Q) (protein) GEVASVPLTNYLDSQYFGKIYLGTPPQEFTVLFDTGSSDFWVPSIYCKSNACKNHQRFDPRKSSTFQNLGKPLSIHYGTGSMQGILGYDTVTVSNIVDIQQTVGLSTQEPGDVFTYAEFDGILGMAYPSLASEYSIPVFDNMMNRHLVAQDLFSVYMDRNGQESMLTLGAIDPSYYTGSLHWVPVTVQQYWQFTVDSVTISGVVVACEGGCQAILDTGTSKLQGPSSDILNIQQAIGATQNQYGEFDIDCDNLSYMPTVVFEINGKMYPLTPSAYTSQDQGFCTSGFQSENHSQKWILGDVFIREYYSVFDRANNLVGLAKAI | 1.29e+07 |

Then there is this protein:
In: Would you mind telling me what αs1-I CN, 6 hours, 11° C. value was observed for camel chymosin variant #163 (L295T) (protein) GKVAREPLTSYLDSQYFGKIYIGTPPQEFTVVFDTGSSDLWVPSIYCKSNVCKNHHRFDPRKSSTFRNLGKPLSIHYGTGSMEGFLGYDTVTVSNIVDPNQTVGLSTEQPGEVFTYSEFDGILGLAYPSLASEYSVPVFDNMMDRHLVARDLFSVYMDRNGQGSMLTLGAIDPSYYTGSLHWVPVTLQQYWQFTVDSVTINGVAVACVGGCQAILDTGTSVLFGPSSDILKIQMAIGATENRYGEFDVNCGNLRSMPTVVFEINGRDYPLSPSAYTSKDQGFCTSGFQGDNNSETWILGDVFIREYYSVFDRANNRVGLAKAI ?
Out: 1.48e+07
